- Assay Procedure: Cytotoxicity against human HL cells assessed as cell viability at 50 uM after 72 hrs by resazurin dye based fluorescence assay relative to control
- Settings: HL cells, read-out: Activity
Counter-ions that a name gives are not always drawn.
Response field label takes MET when viability at 72 h, 50 µM is strictly below 60% and NOT MET in all other cases.

[[record]]
compound = "C=C[C@](C)(O)CC[C@H]1C(=C)CC[C@H]2C(C)(C)CCC[C@]12C"
group_label = "NOT MET"

[[record]]
compound = "C=C1CC[C@H]2O[C@]2(C)CC[C@@H]2[C@@H]1CC2(C)C [(-)-CARYOPHYLLENE OXIDE]"
group_label = "NOT MET"

[[record]]
compound = "O=C1Nc2ccccc2/C1=C1/Nc2ccccc2C1=O"
group_label = "NOT MET"

[[record]]
compound = "C[C@@H]1C[C@H]2O[C@@H]2/C=C\\C=C\\C(=O)Cc2c(Cl)c(O)cc(O)c2C(=O)O1"
group_label = "MET"

[[record]]
compound = "CN1CCc2cc(O)c(O)cc2C1Cc1ccc(O)c(O)c1 (stereo not drawn) [LAUDANOSOLINE HYDROBROMIDE]"
group_label = "NOT MET"

[[record]]
compound = "C[C@H]1O[C@@H](O[C@H]2[C@@H](O)C[C@H](O[C@H]3[C@@H](O)C[C@H](O[C@H]4CC[C@@]5(C)[C@H](CC[C@@H]6[C@@H]5CC[C@]5(C)[C@@H](C7=CC(=O)OC7)CC[C@]65O)C4)O[C@@H]3C)O[C@@H]2C)C[C@H](O)[C@@H]1O"
group_label = "MET"

[[record]]
compound = "C/C=C(/C)C(=O)O[C@H]1CC[C@@]2(C)[C@@H]3CC[C@H]4[C@]5(O)C[C@H](O)[C@@]6(O)[C@@H](CN7C[C@@H](C)CC[C@H]7[C@@]6(C)O)[C@]5(O)C[C@@]42O[C@]13O"
group_label = "NOT MET"

[[record]]
compound = "c1cc2c(cc1[C@H]1OC[C@H]3[C@@H]1CO[C@H]3c1ccc3c(c1)OCO3)OCO2"
group_label = "MET"

[[record]]
compound = "C[C@@H]1C[C@H]2CC[C@H](O2)[C@H](C)C(=O)O[C@@H](C)C[C@@H]2CC[C@@H](O2)[C@@H](C)C(=O)O[C@H](C)C[C@H]2CC[C@H](O2)[C@H](C)C(=O)O[C@@H](C)C[C@@H]2CC[C@@H](O2)[C@@H](C)C(=O)O1"
group_label = "MET"

[[record]]
compound = "COc1ccc(C(=O)OC2C[C@H]3CC[C@H](C2)N3C)cc1OC (stereo partly drawn) [CONVOLVAMINE HYDROCHLORIDE]"
group_label = "NOT MET"

[[record]]
compound = "C=C1C(=O)[C@]23[C@H](O)[C@H]1CC[C@H]2[C@@]12CO[C@]3(O)[C@@H](O)[C@@H]1C(C)(C)CC[C@@H]2O"
group_label = "MET"

[[record]]
compound = "C=CCc1ccc(O)c(-c2ccc(O)c(CC=C)c2)c1"
group_label = "MET"

[[record]]
compound = "CC1=CC(=O)C2=C(C)CC[C@@H]3[C@H](OC(=O)[C@H]3C)[C@@H]12"
group_label = "NOT MET"

